src = PubChem BioAssay (NCI)

Parameter growth: see the listing below.
# Test system: RXF 393 renal
# PROTOCOL SUMMARY: NCI-60 one-dose screen, 48 h (100 = growth as untreated, 0 = no growth, -100 = all killed)
# SETTINGS: 10 µM unless noted
The panel holds about 83,000 compounds, 20% with a hit somewhere; the sample as a whole holds those more often.
Field: numeric (%). Do not append units.

MOLECULE: CC(C)CCN(CCCNc1c2c(nc3ccccc13)CCCC2)CCC(C)C
READOUT: growth
RECORDED NUMBER: 81.9
--
MOLECULE: COc1cc2nc(N3CCC[C@@H](NC4=CC(=O)c5ccccc5C4=O)C3)nc(N)c2cc1OC
READOUT: growth
RECORDED NUMBER: -76.3
--
MOLECULE: O=C(CN1CCOCC1)Nc1ccc(-c2nc3ccccc3s2)cc1
READOUT: growth
RECORDED NUMBER: 111
--
MOLECULE: O=S(=O)(O)CCl
READOUT: growth
RECORDED NUMBER: 107
--
MOLECULE: Cc1oc2ncnc(Nc3ccccc3)c2c1C(=O)NCCO
READOUT: growth
RECORDED NUMBER: 104

# return recorded growth for entry C=CCOc1ccc(/C(O)=C2\C(=O)C(=O)N(c3nccs3)C2c2ccccc2F)cc1 (stereo unspecified)
-20.5

# return recorded growth for input O=C(/C=C/CN1CCOCC1)Nc1cc2c(Nc3ccc(F)c(Cl)c3F)ncnc2cc1OCCOC(F)F
36.4

Please look at this molecule and report its growth: O=C(O)c1cccc([N+](=O)[O-])c1/C=C/c1ccccc1
103

Write down growth measured for item CCN(CC)CCC(=O)c1cccc2ccccc12
102

Indicate its recorded growth; the molecule in question is COc1ccc(C(=O)c2cc(OC)c(OC)c(OC)c2)cc1/C=C/C(=O)c1ccc2c(c1)OCO2
17.4

Provide only the value of recorded growth for COc1cc(C2C=C(C)N=C3SC=C(C)N32)cc(OC)c1OC (stereo unspecified)
-89.7

Tell me growth reported for COc1cc(C2C=C(C)N=C3SC(C)=NN32)cc(OC)c1OC (stereo unspecified)
114

Tell me its growth given CCNC(=O)CCCCC(=O)c1c(C)[nH]c(/C=C2\N=C(c3ccc[nH]3)C=C2OC)c1C as the entry.
-48
